pIC50: −log10 of the molar value.
Please find below pIC50 data on ULK1 (Homo sapiens, UniProt O75385) compiled from the literature.
Sequence (O75385 whole entry, species assumed): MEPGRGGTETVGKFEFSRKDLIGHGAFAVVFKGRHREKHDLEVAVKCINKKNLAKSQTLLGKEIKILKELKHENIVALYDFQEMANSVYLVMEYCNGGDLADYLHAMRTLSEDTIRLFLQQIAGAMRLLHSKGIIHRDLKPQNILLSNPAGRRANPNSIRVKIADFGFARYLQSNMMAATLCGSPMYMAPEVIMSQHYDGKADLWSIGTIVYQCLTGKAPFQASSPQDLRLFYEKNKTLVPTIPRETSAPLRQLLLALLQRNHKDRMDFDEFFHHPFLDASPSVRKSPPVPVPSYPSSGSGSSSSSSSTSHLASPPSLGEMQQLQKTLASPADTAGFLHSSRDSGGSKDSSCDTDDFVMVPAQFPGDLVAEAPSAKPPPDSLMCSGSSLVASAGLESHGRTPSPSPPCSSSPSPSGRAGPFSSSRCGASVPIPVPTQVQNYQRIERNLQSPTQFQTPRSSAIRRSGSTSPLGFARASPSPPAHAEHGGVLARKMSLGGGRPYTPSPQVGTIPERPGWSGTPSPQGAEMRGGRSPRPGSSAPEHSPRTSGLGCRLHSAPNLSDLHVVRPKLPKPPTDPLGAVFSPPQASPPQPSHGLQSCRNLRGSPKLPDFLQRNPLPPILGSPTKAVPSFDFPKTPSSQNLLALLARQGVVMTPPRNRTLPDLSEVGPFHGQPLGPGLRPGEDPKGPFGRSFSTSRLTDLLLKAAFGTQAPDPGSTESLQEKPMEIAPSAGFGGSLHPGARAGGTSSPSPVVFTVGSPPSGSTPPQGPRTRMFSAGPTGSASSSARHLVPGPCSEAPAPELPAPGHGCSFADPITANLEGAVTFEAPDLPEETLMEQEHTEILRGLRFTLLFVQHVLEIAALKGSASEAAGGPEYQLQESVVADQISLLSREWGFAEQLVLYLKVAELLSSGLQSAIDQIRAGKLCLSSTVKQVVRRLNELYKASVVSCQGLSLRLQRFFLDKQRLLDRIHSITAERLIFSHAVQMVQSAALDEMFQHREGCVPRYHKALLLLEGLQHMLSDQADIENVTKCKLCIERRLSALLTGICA

Solved entries:
CCN1CCN(c2ccc(Nc3ncc(C(F)(F)F)c(NCCCN4CCCOCC4=O)n3)c(C(C)C)c2)CC1 ... 7.60 to 9.00
CCc1nn(C2CCN(C)CC2)cc1Nc1ncc(C(F)(F)F)c(NCCCN2CCCOCC2=O)n1 ... 7.00 to 7.60
COc1cc(Nc2ncc(Br)c(Nc3ccccc3O)n2)cc(OC)c1OC ... > 6.70
FC(F)(F)c1cnc(Nc2cccc(Oc3ccccc3)c2)nc1Nc1ccc2c(c1)OCO2 ... < 5.70
FC(F)(F)c1cnc(Nc2cnc3[nH]ccc3c2)nc1NC1COC1 ... > 6.70
CCN1CCCN(c2ccc(Nc3ncc(C(F)(F)F)c(NCCCN4CCCCC4=O)n3)cc2)CC1 ... 7.60 to 9.00
CNC(=O)c1ccccc1Nc1nc(Nc2cc(OC)c(OC)c(OC)c2)ncc1C(F)(F)F ... < 5.70

Could you now look at the following molecule, please?
Prompt line: Give the reported pIC50 for CCC(NC(=O)c1cc(-c2cnn3cc(Nc4ccccc4)cnc23)cs1)C1CC1 (centres unmarked) (system: ULK1 (Homo sapiens, UniProt O75385)).
Response line: 7.31 to 9.00
